Items are presented alongside their recorded Kd.
Biological target: HIV-1 RT and ddNTP-terminated DNA primer/template (Human immunodeficiency virus type 1 group M subtype B, UniProt P04585)
Construct: Wild-type HIV-1 RT p66/p51 heterodimers; 6-His (N); made in house
Experiment: DEC formation assay (gel shift)
Format: binding
Conditions: ligand added to TFV-terminated DNA D20/D36 + HIV-1 RT; read-out: Kd
Unit µM implied. Number only.

# compound, scaleUnit, Kd
measured = [
    ("Nc1ccn([C@H]2C[C@H](O)[C@@H](COP(=O)(O)OP(=O)(O)OP(=O)(O)O)O2)c(=O)n1", "µM", 232),
]

Exercise: Using the record for Nc1nc(=O)n([C@@H]2CS[C@H](COP(=O)(O)OP(=O)(O)OP(=O)(O)O)O2)cc1F [FTC-TP, FTC triphosphate] , state its measured Kd.
Key: 250

* * *

Tested on: HIV-1 strain xxLAI
Experiment: microbe, parasite or virus in culture
Assay type: cell-based
Conditions: Human immunodeficiency virus 1, MT2
measuredMetric: pEC50
API: returns pEC50 as number; meaning -log10 of concentration in mol/L.

# smilesEntry, testSystem, pEC50
rows = [
    ("Nc1nc(=O)n([C@@H]2CS[C@H](CO)O2)cc1F", "HIV-1 strain xxLAI", 5.89),
]

Exercise: Using the record for `O=C1Nc2ccc(Cl)cc2[C@@](C#CC2CC2)(C(F)(F)F)O1` , state its measured pEC50.
Key: 8.25

Exercise: Using the record for `C[C@H](Cn1cnc2c(N)ncnc21)OCP(=O)(O)O` , state its measured pEC50.
Key: 4.89

* * *

Target: HIV-1 RT and ddNTP-terminated DNA primer/template (Human immunodeficiency virus type 1 group M subtype B, UniProt P04585)
Construct: Wild-type HIV-1 RT p66/p51 heterodimers; 6-His (N); made in house
Experiment: DEC formation assay (gel shift)
Assay type: binding
Details: ligand added to FTC-MP-terminated DNA D27/D50 + HIV-1 RT; ND = No DEC formation detected at 2 mM; read-out: Kd
measuredMetric: Kd (µM)
Unit µM implied. Number only.

Exercise: Using the record for `Nc1ncnc2c1ncn2[C@H]1C[C@H](O)[C@@H](COP(=O)(O)OP(=O)(O)OP(=O)(O)O)O1` , state its measured Kd.
Key: 862
